Assayed system: MS2 coat protein, dlFG mutant (Escherichia phage MS2, UniProt P03612, del68-81insG)
Assay remarks: 4 mM Mg2+; no ligand; RNA-MaP array; 100 mM Tris-HCl pH 7.5, 80 mM KCl, 4 mM MgCl2, 0.1 mg/mL BSA, 1 mM DTT, 0.01 mg/mL yeast tRNA, 0.01% Tween-20; protein 1.5 nM to 3 uM; 37 C (Table S3)
Conditions: chain copies: 2; label: tethered by stalled RNA polymerase
Assay endpoint: pKd
For clarity, pKd is expressed as the negative log10 of concentration in mol/L.

Solved cases below.
Binder	Recorded value
Eterna 7670795 (Exclusion - Tryptophan B) (ssRNA) RNA: GGAUAGGACACGGCCGCCACUACCUAGGAUACUAGCAACAUUUGGGUACGUGAGGAUCACCCACGUAGGACCGGGUGUCCUAUCG	7.91
Eterna 6449046 (Small Loop Same State NG 1) (ssRNA) RNA: AAUAAACACACAGGAUAUAGCAUCGUCGUUGCGAACUUAGCGACGACGAUGCUAGAAGGGUGAACACAUGAGGAUCACCCAUGU	6.71
Eterna 6406790 (Exclusion NG 3) (ssRNA) RNA: GUACUGAAGCUUUGCUUUAGUCGUACAUGAGGAUCACCCAUGUAGGAUAUGGUAGGCUUUGCUUACUAGAAGGAUAGAGUGAUU	7.26
Eterna 12641 (Exclusion 3) (ssRNA) RNA: AAUAGCUAAGGAUAUACAUGAGGAUCACCCAUGUAAAACACUACUUGGAACCGCCUCGGUAGAAGGUAGAAAAU	7.69
Eterna 6402672 (Exclusion NG 2) (ssRNA) RNA: UGGCCCGCCGGAGGAUAUCUACUCUGUGGUGCACUGCGUUUGCAAUACAUGAGGAUCACCCAUGUAGAGAAGGCCGAGGGCACA	6.57
Eterna 6451659 (Inverted Exclusion NG 1) (ssRNA) RNA: GCGUGGUUCUAGAAGGUGCUAGCGAUAAGCUAGCAAGGAUAUAGACAUGAGGAUCACCCAUGUCUUAGUGAAAUGGACACACGC	8.31
Eterna 6080103 (Exclusion 1) (ssRNA) RNA: CCCGGACAUGAGGAUCACCCAUGUUAGGAUAUCUAGAGGAUCUAAACCGAAUAGAUCCAGAGAAGGGAUGUGGG	7.46

// next entry
So, Eterna 6121097 (Same State NG 1) (ssRNA) RNA: CGCUGUCACGCAGGAUAUGCAUUGGAUUACAAUGCAGAAGGGCGAUUACAUGAGGAUCACCCAUGUGUCGACAGUGAAGAAGAG ? Its pKd was 6.27

src = paper PMC9170038
